Experimental System: human glucagon receptor expressed in transfected CHO cells (human, UniProt P47871 26-477)
Assay Text: cell-based or functional assay
Lab note: anything with EC50, Glucagon Functional Assay (cAMP production, HTRF) below 30 nM is marked yes; values at 30 nM or higher are marked no.

Input: Say whether its EC50, Glucagon Functional Assay (cAMP production, HTRF) is strictly beneath 30 nM. Entry: HSQGTFTSDYSKYLDSRRAQDFVQXLXNT (A^u at position 25 (urea residue with alanine side chain); Nle (norleucine) at position 27) [Compound 57]
Output: yes

Input: Field: below-cutoff. Rule: recorded EC50, Glucagon Functional Assay (cAMP production, HTRF) strictly less than 30 nM. Subject: HSQGTFTSDYSKYXDSRRAQDFVQWLXNT (A^u at position 14 (urea residue with alanine side chain); Nle (norleucine) at position 27) [Compound 51]
Output: no

Input: In plain terms, does HSQGTFTSDYSKYLDSRRAQDFXQWLXNT (A^u at position 23 (urea residue with alanine side chain); Nle (norleucine) at position 27) [Compound 55] come in under 30 nM for EC50, Glucagon Functional Assay (cAMP production, HTRF)?
Output: no

Input: Find out if reported EC50, Glucagon Functional Assay (cAMP production, HTRF) for HSQGTFTSDYSKYLDXRRAQDFVQWLXNT (A^u at position 16 (urea residue with alanine side chain); Nle (norleucine) at position 27) [Compound 52] is less than 30 nM
Output: no

Input: # check: EC50, Glucagon Functional Assay (cAMP production, HTRF) < 30 nM for HSQGTFTSDYSKYLDSRRAQDFVQWLXNX (Nle (norleucine) at position 27; A^u at position 29 (urea residue with alanine side chain)) [Compound 36]
Output: yes

Input: Confirm or reject: EC50, Glucagon Functional Assay (cAMP production, HTRF) of HSQGTFTSDYSKYLDSRRAQDFVQWLXXT (Nle (norleucine) at position 27; A^u at position 28 (urea residue with alanine side chain)) [Compound 35] lies strictly below 30 nM
Output: yes

Input: Item HSQGTFTSDYSKYLDSRRAQDFVQWXXNT (A^u at position 26 (urea residue with alanine side chain); Nle (norleucine) at position 27) [Compound 58] : EC50, Glucagon Functional Assay (cAMP production, HTRF) beneath 30 nM, strictly?
Output: no
